Value source: ChEMBL document CHEMBL1914423

// reported GI50 for each item listed
System: EKVX
Assay Overview: Anticancer activity against human EKVX cells after 48 hrs by SRB assay
Type: functional
Value Kind: GI50 (µM)

smiles_representation=COc1cccc(-c2nc3sccn3c2-c2ccnc(NCCNC(=O)Nc3cccc(C(F)(F)F)c3)n2)c1 test_target=EKVX unit_info=µM value_observed=3.55
smiles_representation=O=C(NCCNc1nccc(-c2c(-c3cccc(O)c3)nc3sccn23)n1)Nc1cccc(C(F)(F)F)c1 test_target=EKVX unit_info=µM value_observed=4.16
smiles_representation=O=C(NCCNc1nccc(-c2c(-c3cccc(O)c3)nc3sccn23)n1)c1ccccc1 test_target=EKVX unit_info=µM value_observed=25
smiles_representation=O=C(NCCNc1nccc(-c2c(-c3cccc(O)c3)nc3sccn23)n1)c1ccccc1O test_target=EKVX unit_info=µM value_observed=7.81
